- target.or.system: HPA (Homo sapiens, UniProt P04746)
- Sequence (P04746 16-511): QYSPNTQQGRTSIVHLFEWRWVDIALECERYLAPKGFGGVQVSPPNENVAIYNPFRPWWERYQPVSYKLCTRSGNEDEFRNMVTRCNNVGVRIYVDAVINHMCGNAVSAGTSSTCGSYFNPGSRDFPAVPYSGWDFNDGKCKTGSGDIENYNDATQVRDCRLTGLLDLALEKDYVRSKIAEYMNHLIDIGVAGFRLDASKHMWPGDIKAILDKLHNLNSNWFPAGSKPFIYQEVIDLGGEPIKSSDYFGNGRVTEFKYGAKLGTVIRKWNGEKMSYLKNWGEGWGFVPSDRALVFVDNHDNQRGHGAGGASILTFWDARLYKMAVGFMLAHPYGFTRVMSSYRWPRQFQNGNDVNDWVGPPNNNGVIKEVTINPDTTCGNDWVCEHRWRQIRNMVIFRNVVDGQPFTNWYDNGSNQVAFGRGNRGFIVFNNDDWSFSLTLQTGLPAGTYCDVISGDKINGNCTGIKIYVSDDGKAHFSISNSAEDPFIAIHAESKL
- assay.method.text: Binding mode (distribution of hydrolysis products) by HPLC
- Assay type: biochemical
- reported.conditions: share of product GP
measured.parameter: Hydrolysis product GP (%)
// units = %; emit number, no label

compound="O=[N+]([O-])c1ccc(O[C@H]2O[C@H](CO)[C@@H](O[C@H]3O[C@H](CO)[C@@H](O[C@H]4O[C@H](CO)[C@@H](O[C@H]5O[C@H](CO)[C@@H](O[C@H]6O[C@H](CO)[C@@H](O[C@H]7O[C@H](CO)[C@@H](O[C@H]8O[C@H](CO)[C@@H](O)[C@H](O)[C@H]8O)[C@H](O)[C@H]7O)[C@H](O)[C@H]6O)[C@H](O)[C@H]5O)[C@H](O)[C@H]4O)[C@H](O)[C@H]3O)[C@H](O)[C@H]2O)cc1 [Substrate G7P]" target_or_system="HPA (Homo sapiens, UniProt P04746)" reported=1

# input Quick one: Hydrolysis product GP of O=[N+]([O-])c1ccc(O[C@H]2O[C@H](CO)[C@@H](O[C@H]3O[C@H](CO)[C@@H](O[C@H]4O[C@H](CO)[C@@H](O[C@H]5O[C@H](CO)[C@@H](O[C@H]6O[C@H](CO)[C@@H](O[C@H]7O[C@H](COCc8ccccc8)[C@@H](O)[C@H](O)[C@H]7O)[C@H](O)[C@H]6O)[C@H](O)[C@H]5O)[C@H](O)[C@H]4O)[C@H](O)[C@H]3O)[C@H](O)[C@H]2O)cc1 ?
# output 4

====

Overview of recorded hydrolysis rate (relative value) for various compounds
- target.or.system: human salivary α-amylase (HSA) (Homo sapiens)
- Sequence (P0DUB6 16-511): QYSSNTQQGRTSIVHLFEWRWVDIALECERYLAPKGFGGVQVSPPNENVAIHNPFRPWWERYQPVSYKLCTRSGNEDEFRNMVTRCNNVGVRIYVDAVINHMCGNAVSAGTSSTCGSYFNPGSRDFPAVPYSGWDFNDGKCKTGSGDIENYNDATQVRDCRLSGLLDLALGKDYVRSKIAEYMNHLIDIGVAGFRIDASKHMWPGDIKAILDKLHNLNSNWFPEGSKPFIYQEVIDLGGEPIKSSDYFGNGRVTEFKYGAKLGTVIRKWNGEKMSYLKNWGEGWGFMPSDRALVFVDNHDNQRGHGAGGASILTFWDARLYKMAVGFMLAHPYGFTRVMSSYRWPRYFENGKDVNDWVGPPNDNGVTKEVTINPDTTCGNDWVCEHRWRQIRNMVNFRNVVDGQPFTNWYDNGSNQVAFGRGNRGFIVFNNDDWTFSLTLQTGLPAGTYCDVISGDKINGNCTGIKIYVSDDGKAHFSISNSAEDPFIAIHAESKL
- assay.method.text: Hydrolysis rate of substrates by α-amylase (relative to G5P)
- Format: biochemical
- reported.conditions: substrate 1.0 mM, pH 7, value of G5P taken as 1
Kindly provide the number alone.

compound="O=[N+]([O-])c1ccc(O[C@H]2O[C@H](CO)[C@@H](O[C@H]3O[C@H](CO)[C@@H](O[C@H]4O[C@H](CO)[C@@H](O[C@H]5O[C@H](CO)[C@@H](O[C@H]6O[C@H](CO)[C@@H](O[C@H]7O[C@H](CO)[C@@H](O[C@H]8O[C@@H]9COC(c%10ccccc%10)O[C@H]9[C@H](O)[C@H]8O)[C@H](O)[C@H]7O)[C@H](O)[C@H]6O)[C@H](O)[C@H]5O)[C@H](O)[C@H]4O)[C@H](O)[C@H]3O)[C@H](O)[C@H]2O)cc1 (stereo partly shown)" measured_parameter="hydrolysis rate (relative value)" reported=1.0
compound="O=[N+]([O-])c1ccc(O[C@H]2O[C@H](CO)[C@@H](O[C@H]3O[C@H](CO)[C@@H](O[C@H]4O[C@H](CO)[C@@H](O[C@H]5O[C@@H]6COC(c7ccccc7)O[C@H]6[C@H](O)[C@H]5O)[C@H](O)[C@H]4O)[C@H](O)[C@H]3O)[C@H](O)[C@H]2O)cc1 (stereo partly shown)" measured_parameter="hydrolysis rate (relative value)" reported=0
compound="O=[N+]([O-])c1ccc(O[C@H]2O[C@H](CO)[C@@H](O[C@H]3O[C@H](CO)[C@@H](O[C@H]4O[C@H](CO)[C@@H](O[C@H]5O[C@H](CO)[C@@H](O[C@H]6O[C@@H]7COC(c8ccccc8)O[C@H]7[C@H](O)[C@H]6O)[C@H](O)[C@H]5O)[C@H](O)[C@H]4O)[C@H](O)[C@H]3O)[C@H](O)[C@H]2O)cc1 (stereo partly shown)" measured_parameter="hydrolysis rate (relative value)" reported=0

Could you now look at the following compound, please?
# input # query: hydrolysis rate (relative value) | item O=[N+]([O-])c1ccc(O[C@H]2O[C@H](CO)[C@@H](O[C@H]3O[C@H](CO)[C@@H](O[C@H]4O[C@H](CO)[C@@H](O[C@H]5O[C@H](CO)[C@@H](O[C@H]6O[C@H](CO)[C@@H](O[C@H]7O[C@H](CO)[C@@H](O[C@H]8O[C@H](COCc9ccccc9)[C@@H](O)[C@H](O)[C@H]8O)[C@H](O)[C@H]7O)[C@H](O)[C@H]6O)[C@H](O)[C@H]5O)[C@H](O)[C@H]4O)[C@H](O)[C@H]3O)[C@H](O)[C@H]2O)cc1 | system: human salivary α-amylase (HSA) (Homo sapiens)
# output 1.5

====

- target.or.system: HSA (Homo sapiens)
- assay.method.text: Binding mode (distribution of hydrolysis products) by HPLC
- Assay type: biochemical
- reported.conditions: share of product G2P
Hydrolysis product G2P reference
Answer format: numeric, % implied, no suffix.

Worked cases, answers included:
compound="O=[N+]([O-])c1ccc(O[C@H]2O[C@H](CO)[C@@H](O[C@H]3O[C@H](CO)[C@@H](O[C@H]4O[C@H](CO)[C@@H](O[C@H]5O[C@H](CO)[C@@H](O[C@H]6O[C@H](CO)[C@@H](O[C@H]7O[C@H](CO)[C@@H](O)[C@H](O)[C@H]7O)[C@H](O)[C@H]6O)[C@H](O)[C@H]5O)[C@H](O)[C@H]4O)[C@H](O)[C@H]3O)[C@H](O)[C@H]2O)cc1 [Substrate G6P]" reported=40
compound=O=[N+]([O-])c1ccc(O[C@H]2O[C@H](CO)[C@@H](O[C@H]3O[C@H](CO)[C@@H](O[C@H]4O[C@H](CO)[C@@H](O[C@H]5O[C@H](CO)[C@@H](O[C@H]6O[C@H](CO)[C@@H](O[C@H]7O[C@H](CO)[C@@H](O[C@H]8O[C@H](COCc9ccccc9)[C@@H](O)[C@H](O)[C@H]8O)[C@H](O)[C@H]7O)[C@H](O)[C@H]6O)[C@H](O)[C@H]5O)[C@H](O)[C@H]4O)[C@H](O)[C@H]3O)[C@H](O)[C@H]2O)cc1 reported=15
compound=O=[N+]([O-])c1ccc(O[C@H]2O[C@H](CO)[C@@H](O[C@H]3O[C@H](CO)[C@@H](O[C@H]4O[C@H](CO)[C@@H](O[C@H]5O[C@H](COCc6ccccc6)[C@@H](O)[C@H](O)[C@H]5O)[C@H](O)[C@H]4O)[C@H](O)[C@H]3O)[C@H](O)[C@H]2O)cc1 reported=10

Shifting focus to the compound that follows.
# input Name the reported Hydrolysis product G2P value associated with the compound O=[N+]([O-])c1ccc(O[C@H]2O[C@H](CO)[C@@H](O[C@H]3O[C@H](CO)[C@@H](O[C@H]4O[C@H](CO)[C@@H](O[C@H]5O[C@H](CO)[C@@H](O[C@H]6O[C@H](CO)[C@@H](O[C@H]7O[C@H](CO)[C@@H](O[C@H]8O[C@H](CO)[C@@H](O)[C@H](O)[C@H]8O)[C@H](O)[C@H]7O)[C@H](O)[C@H]6O)[C@H](O)[C@H]5O)[C@H](O)[C@H]4O)[C@H](O)[C@H]3O)[C@H](O)[C@H]2O)cc1 [Substrate G7P]
# output 8
